# Tested System: SIK2 (Homo sapiens, UniProt Q9H0K1)
# Sequence (Q9H0K1 whole entry, species assumed): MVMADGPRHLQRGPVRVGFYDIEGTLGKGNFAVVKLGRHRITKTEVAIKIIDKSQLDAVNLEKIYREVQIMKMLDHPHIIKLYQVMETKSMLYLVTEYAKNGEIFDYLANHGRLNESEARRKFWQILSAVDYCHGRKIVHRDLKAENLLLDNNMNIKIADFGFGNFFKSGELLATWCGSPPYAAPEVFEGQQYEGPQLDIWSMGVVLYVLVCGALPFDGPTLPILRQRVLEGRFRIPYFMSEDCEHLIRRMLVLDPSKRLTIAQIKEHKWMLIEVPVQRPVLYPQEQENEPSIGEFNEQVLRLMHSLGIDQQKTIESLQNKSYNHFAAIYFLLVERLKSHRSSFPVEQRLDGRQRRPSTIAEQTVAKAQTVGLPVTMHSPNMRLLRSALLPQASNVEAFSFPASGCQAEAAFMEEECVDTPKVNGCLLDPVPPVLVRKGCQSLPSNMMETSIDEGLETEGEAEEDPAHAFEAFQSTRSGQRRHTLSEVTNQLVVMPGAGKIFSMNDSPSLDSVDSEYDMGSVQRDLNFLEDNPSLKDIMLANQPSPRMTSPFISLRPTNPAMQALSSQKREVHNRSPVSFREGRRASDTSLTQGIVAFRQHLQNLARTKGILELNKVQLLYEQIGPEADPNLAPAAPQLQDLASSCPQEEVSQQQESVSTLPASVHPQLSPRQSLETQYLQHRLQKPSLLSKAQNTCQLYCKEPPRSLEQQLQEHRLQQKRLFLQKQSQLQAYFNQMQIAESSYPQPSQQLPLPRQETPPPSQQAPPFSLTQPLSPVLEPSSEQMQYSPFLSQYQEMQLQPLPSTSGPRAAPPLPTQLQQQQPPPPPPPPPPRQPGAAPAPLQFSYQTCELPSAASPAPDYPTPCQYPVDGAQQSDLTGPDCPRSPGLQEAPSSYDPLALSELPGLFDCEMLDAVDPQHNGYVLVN
# Experiment Description: SIK2 Enzymatic Assay High Version 2 (High ATP)
# Format: biochemical
Measured Property: IC50 (nM)

# count of solved cases: 4
N#Cc1cc(-c2ccn3nc(NC(=O)C4CC4)cc3c2)c(OC[C@@H]2CCN(CC(F)(F)F)C2)cn1 [Example 588]    59.6
Cc1cc(-c2ccn3nc(Nc4cc(C)nc(C)n4)cc3c2)c(OCC2CCS(=O)(=O)N2)cn1 (racemic) [Example 353]    45.1
Cc1cc(-c2ccn3nc(Nc4ccccn4)cc3c2)c(OC[C@H]2CNCCO2)cn1 [Example 428]    20.8
Cc1cc(-c2ccn3nc(Nc4ccn(C)n4)cc3c2)c(O[C@H]2C[C@H]3COC[C@@H](C2)N3C)cn1 [Example 423]    10.3

(A) CN1CC[C@@H](COc2cnc(C#N)cc2-c2ccn3nc(Nc4cccnc4)cc3c2)C1 [Example 4]
(B) N#Cc1cc(-c2ccn3nc(NC(=O)C4CC4)cc3c2)c(OC[C@@H]2C[C@H]3CC[C@@H](C2)N3)cn1 [Example 67]
Data request: Sorting by IC50 in descending order, would A or B appear first? Pick one and reply with its label.
Data returned: A
